// data source = paper PMC6385358

test protocol: Liver microsomal stability
Assay type: in vitro ADME, mouse
measurement parameters: male, CD-1, mouse, pH 7.4; liver microsomes, 1 μM compound; read-out: t½
experimental readout: half-life at 1 μM (min)

# molecule, reading
records = [
    ("O=C(Nc1ccc(Cl)cc1)N[C@@H]1CN[C@H](c2nc(-c3ccccc3)no2)C1 [Compound 9]", 35),
    ("O=C(NC1CCCCC1)N[C@@H]1CN[C@H](c2nc(-c3ccccc3)no2)C1 [Compound 10]", 30),
]

* * *

target or test system: GPBAR1 (Homo sapiens)
Construct: expressed in transfected cells; host or cells: HEK-293T
Sequence (Q8TDU6 whole entry): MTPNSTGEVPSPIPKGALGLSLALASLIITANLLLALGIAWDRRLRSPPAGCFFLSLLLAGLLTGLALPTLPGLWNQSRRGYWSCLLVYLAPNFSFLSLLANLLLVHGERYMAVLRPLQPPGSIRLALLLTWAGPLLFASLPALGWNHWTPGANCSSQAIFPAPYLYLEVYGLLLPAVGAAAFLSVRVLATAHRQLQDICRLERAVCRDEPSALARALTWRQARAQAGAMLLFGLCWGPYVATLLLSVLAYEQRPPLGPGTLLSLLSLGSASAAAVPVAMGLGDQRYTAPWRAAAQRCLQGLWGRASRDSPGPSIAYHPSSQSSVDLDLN
test protocol: Luciferase reporter (CRE) transactivation assay in HEK-293T cells transfected with GPBAR1
Type: cell-based
measurement parameters: HEK-293T, maximal transactivation of CRE, compound 10 μM vs TLCA 10 μM = 100%; HEK-293T; read-out: Efficacy (% vs TLCA)
experimental readout: Emax at 10 µM

For orientation, consider the following solved cases.
# compound, target or test system, Emax at 10 µM
measured = [
    ("[N-]=[N+]=N[C@@H]1CN[C@H](c2nc(-c3ccccc3)no2)C1 [Compound 2]", "GPBAR1 (Homo sapiens)", "58 to 121%"),
    ("O[C@H]1CN[C@H](c2nc(-c3ccccc3)no2)C1 [Compound 1]", "GPBAR1 (Homo sapiens)", "58 to 121%"),
    ("O=C(NCc1ccccc1)N[C@@H]1CN[C@H](c2nc(-c3ccccc3)no2)C1 [Compound 11]", "GPBAR1 (Homo sapiens)", "58 to 121%"),
    ("N[C@@H]1CN[C@H](c2nc(-c3ccccc3)no2)C1 [Compound 3]", "GPBAR1 (Homo sapiens)", "58 to 121%"),
]

Measured on GPBAR1 (Homo sapiens), O=C(Nc1ccc(C(F)(F)F)cc1)N[C@@H]1CN[C@H](c2nc(-c3ccccc3)no2)C1 [Compound 4] has a documented Emax at 10 µM of 58 to 121%

Field Emax at 10 µM (GPBAR1 (Homo sapiens)), entry Cc1ccc(NC(=O)N[C@@H]2CN[C@H](c3nc(-c4ccccc4)no3)C2)cc1 [Compound 6] : 58 to 121%
